Target: Vitamin D3 receptor (Homo sapiens, UniProt P11473)
Sequence (P11473 whole entry): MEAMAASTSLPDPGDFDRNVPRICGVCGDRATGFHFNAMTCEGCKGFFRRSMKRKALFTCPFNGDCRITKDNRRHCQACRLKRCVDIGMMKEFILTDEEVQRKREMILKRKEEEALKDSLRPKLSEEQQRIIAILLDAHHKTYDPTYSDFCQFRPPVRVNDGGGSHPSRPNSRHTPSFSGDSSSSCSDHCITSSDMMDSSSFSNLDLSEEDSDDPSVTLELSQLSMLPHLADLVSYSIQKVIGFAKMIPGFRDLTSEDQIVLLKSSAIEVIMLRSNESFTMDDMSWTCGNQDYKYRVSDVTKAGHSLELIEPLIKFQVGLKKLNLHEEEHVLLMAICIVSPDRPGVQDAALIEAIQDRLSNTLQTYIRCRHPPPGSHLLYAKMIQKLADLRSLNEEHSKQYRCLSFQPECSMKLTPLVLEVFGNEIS
Test: Activation of VDR in human THP1 cells assessed as increase in cathelicidin antimicrobial peptide mRNA expression by RT-PCR
Format: cell-based, THP-1
pEC50: −log10 of the molar value.
REPORTED_PROPERTY: pEC50

[[record]]
chemical_string = "C=C1/C(=C\\C=C2/CCC[C@]3(C)C(C4(CCC(=O)C(C)(C)O)CC4)=CC[C@@H]23)C[C@@H](O)C[C@@H]1O"
reported_property = "pEC50"
recorded_result = 9.16

[[record]]
chemical_string = "C=C1/C(=C\\C=C2/CCC[C@]3(C)C(C4(CCCC(C)(C)O)CC4)=CC[C@@H]23)C[C@@H](O)C[C@@H]1O"
reported_property = "pEC50"
recorded_result = 9.17


---

target: Vitamin D3 receptor (Homo sapiens); test: Activation of VDR in human THP1 cells assessed as increase in 25-hydroxyvitamin D-24-hydroxylase mRNA expression by RT-PCR; type: cell-based, THP-1
pEC50: −log10 of the molar value.
REPORTED_PROPERTY: pEC50

[[record]]
chemical_string = "C=C1/C(=C\\C=C2/CCC[C@]3(C)C(C4(CCCC(C)(C)O)CC4)=CC[C@@H]23)C[C@@H](O)C[C@@H]1O"
recorded_result = 9.17

[[record]]
chemical_string = "C=C1/C(=C\\C=C2/CCC[C@]3(C)C(C4(CCC(=O)C(C)(C)O)CC4)=CC[C@@H]23)C[C@@H](O)C[C@@H]1O"
recorded_result = 9.16


---

system: PBMC; assay: Inhibition of LPS-induced IL12/23p40 production in human PBMC after 24 hrs by ELISA; format: functional, cell-based
REPORTED_PROPERTY: IC50

[[record]]
chemical_string = "C=C1/C(=C\\C=C2/CCC[C@]3(C)C(C4(CCC(=O)C(C)(C)O)CC4)=CC[C@@H]23)C[C@@H](O)C[C@@H]1O"
recorded_result = "< 1 pM"

[[record]]
chemical_string = "C=C1/C(=C\\C=C2/CCC[C@]3(C)C(C4(CCCC(C)(C)O)CC4)=CC[C@@H]23)C[C@@H](O)C[C@@H]1O"
recorded_result = "< 1 pM"


Data credit: ChEMBL document CHEMBL1153416
